Values were extracted from paper PMC13249053.

- testTarget: SPR (Rattus norvegicus)
- Construct: endogenous in cells
- Sequence (P18297 whole entry): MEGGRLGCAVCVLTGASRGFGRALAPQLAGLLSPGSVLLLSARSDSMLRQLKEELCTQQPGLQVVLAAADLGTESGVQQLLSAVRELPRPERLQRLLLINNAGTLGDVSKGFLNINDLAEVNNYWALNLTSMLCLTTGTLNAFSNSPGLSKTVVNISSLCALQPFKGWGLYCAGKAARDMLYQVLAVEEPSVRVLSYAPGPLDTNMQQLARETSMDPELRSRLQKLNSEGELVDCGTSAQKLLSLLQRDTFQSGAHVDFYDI
- assayRemarks: Cellular SPR activity: BH2 formation from sepiapterin in the presence of methotrexate, PC12 cells
- testConditions: PC12 (rat pheochromocytoma); with methotrexate
measurementName: IC50 (µM)
Write the number in µM without appending the unit.

Query: Item CC[PH](CC)(CC)[Au][S][C@@H]1O[C@H](COC(C)=O)[C@@H](OC(C)=O)[C@H](OC(C)=O)[C@H]1OC(C)=O has what recorded IC50?
Result: 1

* * *

- testTarget: UniProt P35270
- Sequence (P35270 whole entry): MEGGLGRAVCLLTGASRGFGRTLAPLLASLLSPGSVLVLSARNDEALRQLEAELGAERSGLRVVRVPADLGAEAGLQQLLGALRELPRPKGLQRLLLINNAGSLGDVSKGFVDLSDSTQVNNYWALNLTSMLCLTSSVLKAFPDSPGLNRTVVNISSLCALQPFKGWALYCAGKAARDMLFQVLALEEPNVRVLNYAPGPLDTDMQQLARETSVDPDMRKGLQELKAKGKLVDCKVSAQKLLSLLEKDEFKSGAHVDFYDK
- assayRemarks: Cellular SPR activity: BH2 formation from sepiapterin in the presence of methotrexate, human cell lines
- Type: cell-based
- Set-up: endogenous in cells; host or cells: HaCaT, Jurkat, BeWo, SKNMC, CX-1
- testConditions: CX-1 (human colon adenocarcinoma); with methotrexate; read-out: SPR IC50, CX-1 cells
measurementName: IC50 (µM)
Form entry: value (µM) — number only.

Query: Find the recorded IC50 belonging to CC[PH](CC)(CC)[Au][S][C@@H]1O[C@H](COC(C)=O)[C@@H](OC(C)=O)[C@H](OC(C)=O)[C@H]1OC(C)=O and report it.
Result: 25.1
